- Assay Details: Bidirectional Caco-2 permeability assay
- Format: in vitro ADME
- Settings: human, Caco-2
Item-by-item account of efflux ratio at 90 min

# Compound, efflux ratio at 90 min
data = [
    ("CCC(CC)C(=O)Nc1ncnn2c([C@]3(C#N)O[C@H](COC(=O)CC4CCCC4)[C@@H](OC(=O)[C@H](N)C(C)(C)C)[C@H]3O)ccc12 [Compound 76]", 1),
    ("COC(C)(C)C(=O)Nc1ncnn2c([C@]3(C#N)O[C@H](COC(=O)CC4CCCC4)[C@@H](OC(=O)[C@@H](N)C(C)(C)C)[C@H]3O)ccc12 [Compound 57]", 0.61),
    ("CC(=O)OCOC(=O)Nc1ncnn2c([C@]3(C#N)O[C@H](COC(=O)[C@@H](N)C(C)(C)C)[C@@H](OC(=O)CC4CCCCC4)[C@H]3O)ccc12 [Compound 36]", 1.24),
    ("CCCCOC(=O)Nc1ncnn2c([C@]3(C#N)O[C@H](COC(=O)CC4CCCCCC4)[C@@H](OC(=O)[C@@H](N)C(C)(C)C)[C@H]3O)ccc12 [Compound 65]", 0.62),
    ("CC(C)[C@@H](C)C(=O)Nc1ncnn2c([C@]3(C#N)O[C@H](COC(=O)CC4CCCCC4)[C@@H](OC(=O)[C@@H](N)C(C)(C)C)[C@H]3O)ccc12 [Compound 14]", 0.7),
    ("CCCCCCOC(=O)Nc1ncnn2c([C@]3(C#N)O[C@H](COC(=O)[C@@H](N)C(C)(C)C)[C@@H](OC(=O)CC)[C@H]3O)ccc12 [Compound 42]", 0.94),
    ("CC(C)(C)[C@H](N)C(=O)OC[C@H]1O[C@@](C#N)(c2ccc3c(N)ncnn23)[C@H](O)[C@@H]1OC(=O)CC1CCCCC1 [Compound 32]", 1.34),
    ("COC(C)(C)C(=O)Nc1ncnn2c([C@]3(C#N)O[C@H](COC(=O)CC4CCCCC4)[C@@H](OC(=O)[C@@H](N)C(C)(C)C)[C@H]3O)ccc12 [Compound 3]", 1.1),
    ("CCCCC(=O)Nc1ncnn2c([C@]3(C#N)O[C@H](COC(=O)CC4CCC4)[C@@H](OC(=O)[C@@H](N)C(C)(C)C)[C@H]3O)ccc12 [Compound 47]", 2.68),
    ("CCCCCCOC(=O)Nc1ncnn2c([C@]3(C#N)O[C@H](COC(=O)[C@@H](N)C(C)(C)C)[C@@H](O)[C@H]3O)ccc12 [Compound 41]", 10.4),
    ("CC(C)[C@H](C)C(=O)Nc1ncnn2c([C@]3(C#N)O[C@H](COC(=O)CC4CCCCC4)[C@@H](OC(=O)[C@@H](N)C(C)(C)C)[C@H]3O)ccc12 [Compound 15]", 0.91),
]

====

- Assay Details: Bidirectional Caco-2 permeability assay
- Type: in vitro ADME
- Settings: human; Caco-2 monolayer, apical to basolateral, 90-minute incubation; read-out: Papp, A-B
Outcome: criterion met for Papp A→B at 90 min of at least 3 ×10⁻⁶ cm/s; criterion not met for anything lower.

# Compound, Assigned Label
measured = [
    ("CC[C@H](C)C(=O)Nc1ncnn2c([C@]3(C#N)O[C@H](COC(=O)Cc4ccccc4)[C@@H](OC(=O)[C@@H](N)C(C)(C)C)[C@H]3O)ccc12 [Compound 10]", "criterion not met"),
    ("COC(C)(C)C(=O)Nc1ncnn2c([C@]3(C#N)O[C@H](COC(=O)Cc4ccccc4)[C@@H](OC(=O)[C@@H](N)C(C)(C)C)[C@H]3O)ccc12 [Compound 5]", "criterion met"),
    ("CCOC(C)(C)C(=O)Nc1ncnn2c([C@]3(C#N)O[C@H](COC(=O)Cc4ccccc4)[C@@H](OC(=O)[C@@H](N)C(C)(C)C)[C@H]3O)ccc12 [Compound 6]", "criterion met"),
    ("CC(C)[C@@H](C)C(=O)Nc1ncnn2c([C@]3(C#N)O[C@H](COC(=O)Cc4ccccc4)[C@@H](OC(=O)[C@@H](N)C(C)(C)C)[C@H]3O)ccc12 [Compound 21]", "criterion met"),
    ("CC(C)NC(=O)Nc1ncnn2c([C@]3(C#N)O[C@H](COC(=O)Cc4ccccc4)[C@@H](OC(=O)[C@@H](N)C(C)(C)C)[C@H]3O)ccc12 [Compound 29]", "criterion not met"),
    ("CCC(CC)C(=O)Nc1ncnn2c([C@]3(C#N)O[C@H](COC(=O)Cc4ccccc4)[C@@H](OC(=O)[C@@H](N)C(C)(C)C)[C@H]3O)ccc12 [Compound 8]", "criterion not met"),
    ("CC(=O)OCOC(=O)Nc1ncnn2c([C@]3(C#N)O[C@H](COC(=O)Cc4ccccc4)[C@@H](OC(=O)[C@@H](N)C(C)(C)C)[C@H]3O)ccc12 [Compound 30]", "criterion not met"),
    ("CC(C)[C@H](C)C(=O)Nc1ncnn2c([C@]3(C#N)O[C@H](COC(=O)Cc4ccccc4)[C@@H](OC(=O)[C@@H](N)C(C)(C)C)[C@H]3O)ccc12 [Compound 22]", "criterion not met"),
]

====

- Assay Details: Bidirectional Caco-2 permeability assay
- Type: in vitro ADME
- Settings: human; Caco-2 monolayer, basolateral to apical, 90-minute incubation; read-out: Papp, B-A

# Compound, Papp B→A at 90 min
data = [
    ("CC(=O)OCOC(=O)Nc1ncnn2c([C@]3(C#N)O[C@H](COC(=O)Cc4ccccc4)[C@@H](OC(=O)[C@@H](N)C(C)(C)C)[C@H]3O)ccc12 [Compound 30]", "3.11 ×10⁻⁶ cm/s"),
    ("CC(C)NC(=O)Nc1ncnn2c([C@]3(C#N)O[C@H](COC(=O)Cc4ccccc4)[C@@H](OC(=O)[C@@H](N)C(C)(C)C)[C@H]3O)ccc12 [Compound 29]", "19.6 ×10⁻⁶ cm/s"),
    ("COC(C)(C)C(=O)Nc1ncnn2c([C@]3(C#N)O[C@H](COC(=O)Cc4ccccc4)[C@@H](OC(=O)[C@@H](N)C(C)(C)C)[C@H]3O)ccc12 [Compound 5]", "16.5 ×10⁻⁶ cm/s"),
    ("CC(C)[C@@H](C)C(=O)Nc1ncnn2c([C@]3(C#N)O[C@H](COC(=O)Cc4ccccc4)[C@@H](OC(=O)[C@@H](N)C(C)(C)C)[C@H]3O)ccc12 [Compound 21]", "21 ×10⁻⁶ cm/s"),
    ("CC(C)[C@H](C)C(=O)Nc1ncnn2c([C@]3(C#N)O[C@H](COC(=O)Cc4ccccc4)[C@@H](OC(=O)[C@@H](N)C(C)(C)C)[C@H]3O)ccc12 [Compound 22]", "6.1 ×10⁻⁶ cm/s"),
]
